# Tested on: TK-10 renal
# protocolNotes: NCI tumour cell line growth inhibition, 48 h
measuredMetric: TGI (µM)
All answers are understood in µM, so give the number only.

# querySmiles, TGI / µM
records = [
    ("C=C1SC(=Nc2ccccc2Cl)N(C(=O)c2sc3ccccc3c2Cl)C1(C)C", 37.1),
]

# evaluate next
*Q* Please report the measured TGI for CCOC(=O)C#Cc1ccc([N+](=O)[O-])cc1
*A* 27.4

----------
# Test system: HCT-116 colon
# protocolNotes: NCI tumour cell line growth inhibition, 48 h; in the data active = GI50 below about 0.43 µM; inactive = the rest
Outcome field: choose from 1 for active, 0 for inactive

# molecule, classAssignment
rows = [
    ("CCn1cc(C(=O)N/N=C/c2cccc(F)c2)c(=O)c2cc(F)c(N3CCNC(C)C3)c(F)c21 (centres undefined)", 0),
    ("CCC(c1ccc(OC)cc1)C(CC)c1ccc(O)c(CN2CCCC2)c1 (centres undefined)", 0),
    ("O=C(O[C@H]1CN[C@H](C#Cc2cc3ncnc(Nc4ccc(OCc5cccc(F)c5)c(Cl)c4)c3s2)C1)N1CCOCC1", 0),
    ("O=S(=O)(NCCCNc1cc(-c2cn(-c3ccccc3)nc2-c2cccc(O)c2)ccn1)c1cccc2ccccc12", 0),
    ("O=C1CCC2=C3C4CCCCC4C(=O)C4CCCC(OC2C1)C34 (centres undefined)", 1),
]

*Q* Tell me the assay call for COc1c(B(O)O)cccc1-c1nc2c(F)cc3[nH]ncc3c2c2c1CCCC2 please.
*A* 1

*Q* Recorded test outcome, item C=C1SC(=Nc2ccccc2Cl)N(C(=O)c2sc3ccccc3c2Cl)C1(C)C
*A* 0

*Q* Answer briefly: the call reported for COc1cccc(-c2nc(-c3ccc(NC(=O)c4ccccc4)cc3)[nH]c2-c2ccnc(Br)c2)c1 in this assay.
*A* 0

*Q* Hi, sorry to bother you, what did the test record for O=C1c2cccc3cc([N+](=O)[O-])cc(c23)C(=O)N1CCN1CCCC1 ?
*A* 0

----------
# Tested on: SF-295 CNS
# protocolNotes: NCI tumour cell line growth inhibition, 48 h
TGI reference

# compound, TGI
data = [
    ("CSc1ccc(/C=C2\\N=C(c3ccccc3)N(c3nc4c(Cl)cc(Cl)cc4s3)C2=O)cc1", "79.7 µM"),
    ("O=c1[nH]c(Nc2cccc(Br)c2)nc2nc[nH]c12", "> 100 µM"),
]

*Q* Please indicate TGI recorded for O=C(Nc1ccc(Cl)cc1)c1cc2cc(F)ccc2cc1O
*A* 6.72 µM

*Q* // fetch TGI given entry CC(C)(C)N1CC(OC(N)=O)C1
*A* > 100 µM

*Q* // Input: NCCCc1c(-c2ccccc2)nc(N)[nH]c1=O . Output its TGI only.
*A* > 100 µM

*Q* Report TGI, nothing else, for this compound: CC1(C)N=C(/C=N/O)C(C)(C)N1O
*A* > 100 µM

----------
Below is a list of entries, each paired with its recorded TGI value.
# System: HOP-62 NSCLC
# protocolNotes: NCI tumour cell line growth inhibition, 48 h
Response body: numeric value in µM, unit text excluded.

# querySmiles, measuredMetric, recordedValue
records = [
    ("O=C(/C=C\\Nc1ccccc1O)C(Cl)(Cl)Cl", "TGI", 52.7),
    ("O=C(N/N=C\\c1ccc([N+](=O)[O-])cc1)Nc1cccc2ccccc12", "TGI", 22.5),
    ("COc1cc2c(=O)n(CCCn3ccnc3)c3c4cc5c(cc4ccc3c2cc1OC)OCO5", "TGI", 5.37),
]

Now let's try a different one.
*Q* Provide measured TGI value, entry: CN(C1=NS(=O)(=O)N=C(N(C)c2ccccc2)O1)c1ccccc1
*A* 41.9

----------
# System: MDA-MB-231 breast
# protocolNotes: NCI tumour cell line growth inhibition, 48 h
Reported GI50 values for the following compounds.

# compound, GI50
measured = [
    ("CCOC(=O)c1c(C)[nH]c(/C=C2\\N=C(c3ccc[nH]3)C=C2OC)c1C", "26.3 nM"),
]

*Q* Please give measured GI50 of the following entry: Cc1ccc2c(N/N=C\c3ccco3)cc(C)nc2n1
*A* 3530 nM

*Q* // Input: C[C@@H](Oc1cc(NS(=O)(=O)N2CCC2)nc(SCc2cccc(F)c2F)n1)[C@@H](O)CO . Output its GI50 only.
*A* > 100000 nM

*Q* Kindly indicate its recorded GI50. Item: COc1cc2c(=O)n(CCCn3ccnc3)c3c4cc5c(cc4ccc3c2cc1OC)OCO5
*A* 1380 nM

*Q* For the compound COc1c(B(O)O)cccc1-c1nc2c(F)cc3[nH]ncc3c2c2c1CCCC2 , give its measured GI50 value.
*A* 42.3 nM

*Q* Specify reported GI50 for the compound shown: CC1OC(O[C@H]2/C=C/C=C/C=C/C=C/C=C/C=C/C=C/[C@H](C)[C@@H](O)[C@@H](C)[C@H](C)OC(=O)C[C@H](O)C[C@H](O)CC[C@@H](O)[C@H](O)C[C@H](O)C[C@]3(O)C[C@H](O)[C@@H](C(=O)O)[C@H](C2)O3)C(O)C(N)C1O (some centres not stated)
*A* 32900 nM

*Q* State its GI50 for this compound: CC(C)(C)N1CC(OC(N)=O)C1
*A* > 100000 nM

*Q* State its GI50: COc1ccccc1N1CCN(C(=O)c2ccc(NS(=O)(=O)c3cccc4cccnc34)cc2)CC1
*A* > 53600 nM

*Q* Please supply the value of reported GI50 for the item COc1cc(C)[nH]c(=O)c1CN1CCc2c(Cl)cc([C@H](OC)C3COC3)c(Cl)c2C1=O
*A* > 100000 nM

*Q* Could you please provide reported GI50 for CCn1cc(C(=O)N/N=C/c2cccc(F)c2)c(=O)c2cc(F)c(N3CCNC(C)C3)c(F)c21 (configuration not stated) ? Thanks!
*A* 1680 nM

*Q* Kindly indicate its recorded GI50. Item: COc1cc(/C=C2\CN(S(=O)(=O)c3ccc(C)cc3)C/C(=C\c3cc(CN4CCCCC4)c(O)c(OC)c3)C2=O)cc(CN2CCCCC2)c1O
*A* 1140 nM

*Q* Answer with the recorded GI50 of N=C1C(c2nc3ccccc3s2)=C(O)CN1c1ccc(Cl)cc1Cl only.
*A* 17100 nM

*Q* Respond only with GI50 recorded for O=C(Nc1ccc(Cl)cc1)c1cc2cc(F)ccc2cc1O
*A* 1550 nM

*Q* Supply GI50 value. Item: COc1cc([C@@H]2c3cc4c(cc3[C@H](OC(C)=O)[C@H]3COC(=O)[C@H]23)OCO4)cc(OC)c1OC
*A* 41.6 nM

*Q* State, in one line, measured GI50 of CC1(C)CCC2(C(=O)O)CC[C@]3(C)C(=CCC4C5(C)CC[C@H](OC6OC(C(=O)O)C(O)C(OC7OC(CO)C(O)C(O)C7O)C6OC6OC(CO)C(O)C(O)C6O)C(C)(C)C5CCC43C)C2C1 (some centres not stated)
*A* 45000 nM

*Q* Entry O=C1c2cccc3cc([N+](=O)[O-])cc(c23)C(=O)N1CCN1CCCC1 needs its GI50 filled in; supply it.
*A* 1560 nM

*Q* Tell me GI50 reported for O=C1/C=C/[C@@H](O)[C@@H]2C[C@@H](O)C[C@H]2/C=C/CCC[C@H](CO)O1
*A* 1960 nM

----------
# Test system: NCI-H522 lung
# protocolNotes: NCI tumour cell line growth inhibition, 48 h
Listing of recorded TGI by entry.
Write the number in µM without appending the unit.

In the examples that follow, each entry is paired with its recorded TGI.
# compound, systemUnderTest, unitSpec, TGI
measured = [
    ("CC(=O)O[C@H]1CCC2[C@@H]3CCC4Nc5c(cnn5-c5ccccc5)C[C@]4(C)C3CC[C@@]21C (stereo not given in full)", "NCI-H522 lung", "µM", 29.7),
    ("CCOC(=O)C#Cc1ccc([N+](=O)[O-])cc1", "NCI-H522 lung", "µM", 3.09),
]

*Q* Give TGI for Clc1ccc2c(NCCNc3ccnc4cc(Cl)ccc34)ccnc2c1
*A* 35.2

*Q* Could you please provide reported TGI for O=C(Nc1ccc(Cl)cc1)c1cc2cc(F)ccc2cc1O ? Thanks!
*A* 3.03

----------
# System: NCI-H23 lung
# protocolNotes: NCI tumour cell line growth inhibition, 48 h
Rule: true for TGI not less than 7 µM, false for anything less.

*Q* Assess whether reported TGI for CN(C)Cc1cccc(CN(C)C)[c]1[Sn]([Br])([c]1ccccc1)[c]1ccccc1 sits at 7 µM or higher.
*A* true

*Q* Is TGI at least 7 µM? Consider CN(C)CCNC(=O)c1ccc(NCCCN(C)CCCNc2ccc(C(=O)NCCN(C)C)c3[nH]c4ccc([N+](=O)[O-])cc4c(=O)c23)c2c(=O)c3cc([N+](=O)[O-])ccc3[nH]c12
*A* false

*Q* Decide: TGI of CC(=O)N1N=C(N)CC1=O >= 7 µM?
*A* true

*Q* Decide: TGI of COc1ccc(Cl)cc1NC(=O)c1c(NC(=O)C(F)(F)C(F)(F)F)sc2c1CCCCC2 >= 7 µM?
*A* true

*Q* # check: TGI of COc1cc(/C=C/C(=O)N[C@@H]2C(=O)N3[C@@H]2SC(C)(C)[C@@H]3C(=O)O)cc(OC)c1OC is greater than or equal to 7 µM
*A* true

*Q* Answer whether TGI of C[Si](C)(C)/C=C\CCCN1C(=O)CCC1=O is greater than or equal to 7 µM.
*A* true

*Q* Please tell me: is the compound NC(=O)c1cc(Cl)ccc1NC(=O)c1ccccc1-c1ccccc1 at or over 7 µM in terms of TGI?
*A* true

*Q* Item O=C(O[C@H]1CN[C@H](C#Cc2cc3ncnc(Nc4ccc(OCc5cccc(F)c5)c(Cl)c4)c3s2)C1)N1CCOCC1 with TGI of 7 µM or above?
*A* true

*Q* Given CCOC(=O)c1cc(=O)oc2c1N(C)c1ncccc1N2 , state whether its TGI is at least 7 µM.
*A* true

*Q* Exam item: decide whether the reported TGI for O=C(COc1ccc(Cl)cc1)N1N=C(c2ccc([N+](=O)[O-])o2)CC1(O)c1ccccc1 (stereo not given) is at least 7 µM.
*A* false

*Q* Please indicate if the recorded TGI for O=C1/C(=C/c2ccccc2)CN(CCC(=O)N2C/C(=C\c3ccccc3)C(=O)/C(=C/c3ccccc3)C2)C/C1=C\c1ccccc1 meets or exceeds 7 µM.
*A* true

*Q* Is TGI for O=c1ccccc(-c2ccc(-c3ccco3)cc2)c1O at or above 7 µM?
*A* true

*Q* Given O=C(Nc1ccc(Cl)cc1)c1cc2cc(F)ccc2cc1O , state whether its TGI is at least 7 µM.
*A* true

*Q* Reported TGI at or above 7 µM? CC(=O)c1c(-c2ccccc2)c(-c2ccc(OCCN(C)C)cc2)n2ccccc12
*A* true

*Q* In plain terms: is recorded TGI at least 7 µM for CC1Cc2c(N)nc(N3CCOCC3)nc2NC1=O (stereo not given) ?
*A* true

*Q* Is it the case that Cc1cccc2c1O/C(=C\c1ncc([N+](=O)[O-])n1C)C2=O has TGI reaching or exceeding 7 µM?
*A* false

*Q* In plain terms: is recorded TGI at least 7 µM for N=c1oc2ccc(Cl)cc2cc1C(=O)NCc1ccccc1 ?
*A* true

# credit: PubChem BioAssay (NCI)
